Tested on: Adriamycin-Resistant Human Ovary Cancer Cells (A2780/ADM)
Measurement Context: 72 h
Value Type: pIC50
Give only the number. pIC50 is defined as minus log10 of concentration in molar units.

Looking for the measured pIC50 of COC1C(N(C)CCO)CC2OC1(C)n1c3ccccc3c3c4c(c5c6ccccc6n2c5c31)C(=O)NC4O (single isomer, unassigned) [Compound I-8] , can you help?
4.76

###

Tested on: Adriamycin-Resistant Human Ovary Cancer Cells (A2780/ADM)
Experiment Notes: Test on Vindesine Resistance Using Adriamycin-Resistant Human Ovary Cancer Cells (A2780/ADM)
Measurement Context: A2780, 72 h, read-out: IC₅₀ of Test Compound Alone
Value Type: IC50

Return IC50 measured with Adriamycin-Resistant Human Ovary Cancer Cells (A2780/ADM) given this compound: CCOC(=O)N(C)C1CC2OC(C)(C1OC)n1c3ccccc3c3c4c(c5c6ccccc6n2c5c31)C(=O)N(C)C4 (stereo not shown)
> 10 µM
